All figures here come from the supplement of paper PMC10567573.

B1: BTBD10 (parent)
chain: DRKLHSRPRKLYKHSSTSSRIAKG

Variants of: B1
protocol notes: protein stability index of a GFP-peptide fusion (GPS, HEK-293T) (PSI 1-6); higher = more stable;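 note: lentivirally expressed fusions sorted by FACS into six bins by GFP to DsRed ratio, PSI derived from sequencing read proportions per bin multiplied by bin number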
stated conditions: c terminus: a fixed tail appended
For each record, write down the corresponding protein stability index.
The response must contain the number and no unit.

Using the record for `DRKLHSRPRKLYKHPSTSSRIAKG` , report its protein stability index.
4.05

Using the record for `DRKLHSRPRKLYKHSSTSSPIAKG` , report its protein stability index.
3.6

Using the record for `DRKLHSRPRKLYKHSFTSSRIAKG` , report its protein stability index.
2.17

Using the record for `DRKLHSRPRKLYKHSSTSSMIAKG` , report its protein stability index.
4.06

Using the record for `DRKLHSRPRKLYKASSTSSRIAKG` , report its protein stability index.
4.27

Using the record for `DRKLHSRPRKLYVHSSTSSRIAKG` , report its protein stability index.
3.69

Using the record for `DRKLHSRPRKFYKHSSTSSRIAKG` , report its protein stability index.
4.91

Using the record for `DRKLHSRPRRLYKHSSTSSRIAKG` , report its protein stability index.
3.97

Using the record for `VRKLHSRPRKLYKHSSTSSRIAKG` , report its protein stability index.
3.93

Using the record for `DCKLHSRPRKLYKHSSTSSRIAKG` , report its protein stability index.
3.62

Using the record for `DRKLHSRPRKLYKHSSTSSRINKG` , report its protein stability index.
3.34

Using the record for `DRKLHSRPRKLYKHSSTSSRPAKG` , report its protein stability index.
4.16

Using the record for `DRLLHSRPRKLYKHSSTSSRIAKG` , report its protein stability index.
3.77

Using the record for `DRKLHSRPRKLYKHSSTSSRIDKG` , report its protein stability index.
4.01

Using the record for `DRQLHSRPRKLYKHSSTSSRIAKG` , report its protein stability index.
3.87

Using the record for `DRKLRSRPRKLYKHSSTSSRIAKG` , report its protein stability index.
3.9

Using the record for `DRKLHSRPRKLYKHSSTSSNIAKG` , report its protein stability index.
4.21

Using the record for `DRKLHSRPRKVYKHSSTSSRIAKG` , report its protein stability index.
3.82

Using the record for `DRKLHSRPDKLYKHSSTSSRIAKG` , report its protein stability index.
4.01

Using the record for `DRKLHSRPRKLYKHSRTSSRIAKG` , report its protein stability index.
3.78

Using the record for `DRKLHSRPRKLYKHSSTSSRIAPG` , report its protein stability index.
3.44

Using the record for `DRSLHSRPRKLYKHSSTSSRIAKG` , report its protein stability index.
3.57

Using the record for `DRKLHSRPRKLYIHSSTSSRIAKG` , report its protein stability index.
2.68

Using the record for `HRKLHSRPRKLYKHSSTSSRIAKG` , report its protein stability index.
3.42

Using the record for `DRKLHGRPRKLYKHSSTSSRIAKG` , report its protein stability index.
3.48

Using the record for `DRKLHSRPRKLYKQSSTSSRIAKG` , report its protein stability index.
3.79

Using the record for `DAKLHSRPRKLYKHSSTSSRIAKG` , report its protein stability index.
3.42

Using the record for `DRKLHSRPRKTYKHSSTSSRIAKG` , report its protein stability index.
4.82

Using the record for `DRALHSRPRKLYKHSSTSSRIAKG` , report its protein stability index.
4.52

Using the record for `DRKLHSRPRKLYKHSSTSSRIAKF` , report its protein stability index.
3.19

Using the record for `DRKLHSRPRILYKHSSTSSRIAKG` , report its protein stability index.
2.62

Using the record for `DRKLHSRPRKLYKHSSTSSRIMKG` , report its protein stability index.
3.44

Using the record for `DRKLHSRPRKLYKHSSTGSRIAKG` , report its protein stability index.
3.99

Using the record for `DRKLHSRPRKLYKYSSTSSRIAKG` , report its protein stability index.
2.79

Using the record for `DRKVHSRPRKLYKHSSTSSRIAKG` , report its protein stability index.
3.71

Using the record for `DRKLHSRPRKLYKISSTSSRIAKG` , report its protein stability index.
3.88

Using the record for `DRKLHSRPRKLYKHSSTSSRIAKA` , report its protein stability index.
3.61

Using the record for `DRKLHSRPRKLYKHSSTSSRIQKG` , report its protein stability index.
4.15

Using the record for `DRKLHSRPRKLYKHSSTSSRIAKQ` , report its protein stability index.
3.92

Using the record for `DRKLHSRPRKLYKHSSTSARIAKG` , report its protein stability index.
3.55

Using the record for `DRKLHSRPRKLYMHSSTSSRIAKG` , report its protein stability index.
2.84

Using the record for `DRKLHSRPRKLYKHSSTWSRIAKG` , report its protein stability index.
2.71

Using the record for `DRKLHSGPRKLYKHSSTSSRIAKG` , report its protein stability index.
4.33

Using the record for `DRKLHSRPRKLYKHSSTSYRIAKG` , report its protein stability index.
2.62

Using the record for `DRKIHSRPRKLYKHSSTSSRIAKG` , report its protein stability index.
3.62

Using the record for `DRKLHSRPRLLYKHSSTSSRIAKG` , report its protein stability index.
3.77
